Target: Transient receptor potential cation channel subfamily V member 1 (Homo sapiens, UniProt Q8NER1)
Sequence (Q8NER1 whole entry): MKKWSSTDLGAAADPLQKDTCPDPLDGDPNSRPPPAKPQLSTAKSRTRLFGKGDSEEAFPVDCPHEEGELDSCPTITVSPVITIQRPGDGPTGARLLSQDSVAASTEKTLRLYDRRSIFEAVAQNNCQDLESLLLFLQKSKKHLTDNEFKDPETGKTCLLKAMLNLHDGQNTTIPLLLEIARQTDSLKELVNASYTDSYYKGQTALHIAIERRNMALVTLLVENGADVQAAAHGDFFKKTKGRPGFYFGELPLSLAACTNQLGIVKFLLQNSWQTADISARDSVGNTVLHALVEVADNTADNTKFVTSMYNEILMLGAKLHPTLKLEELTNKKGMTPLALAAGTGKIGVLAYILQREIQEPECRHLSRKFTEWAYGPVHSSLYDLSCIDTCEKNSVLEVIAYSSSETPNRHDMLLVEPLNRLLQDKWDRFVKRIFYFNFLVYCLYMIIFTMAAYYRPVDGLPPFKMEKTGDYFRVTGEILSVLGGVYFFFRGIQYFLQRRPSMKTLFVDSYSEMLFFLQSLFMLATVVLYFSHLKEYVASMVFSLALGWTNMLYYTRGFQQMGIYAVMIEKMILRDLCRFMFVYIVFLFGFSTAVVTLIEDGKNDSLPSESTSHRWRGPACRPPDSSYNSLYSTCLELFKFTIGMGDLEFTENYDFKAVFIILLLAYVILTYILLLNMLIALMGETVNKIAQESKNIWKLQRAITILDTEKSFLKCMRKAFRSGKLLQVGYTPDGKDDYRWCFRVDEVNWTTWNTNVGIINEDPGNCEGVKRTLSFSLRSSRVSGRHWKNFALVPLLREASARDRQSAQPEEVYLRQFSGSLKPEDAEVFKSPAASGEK
Assay: Ca2+ Influx Functional Assay for the Determination of in Vitro Activity.
Conditions: pH 7.4; 22 °C
MEASUREMENT_TYPE: EC50 (nM)

1: O=C(NCc1ccc(Cl)c(C(F)(F)F)c1)Nc1cccc2[nH]ccc12
2: Cc1[nH]c2cccc(NC(=O)NCc3ccc(Br)cc3)c2c1C
3: O=C(NCc1ccc(Br)cc1)Nc1cccc2[nH]ncc12
4: O=C(NCc1cccc(F)c1)Nc1cccc2[nH]ccc12
Query: Hi! Can you put these in order of EC50, lowest number first? List labels; respect the requested ordering.
Response: 3, 1, 2, 4

P: O=C(NCc1ccc(Br)cc1)Nc1cccc2[nH]ccc12
Q: Cn1ncc2c(NC(=O)NCc3ccc(OC(F)(F)F)cc3)cccc21
Query: Identify the item whose EC50 is the smaller number: P or Q Lab note: record the label of whichever item you select.
Response: Q

a: O=C(NCc1ccc(F)cc1)Nc1cccc2[nH]ccc12
b: O=C(NCc1ccc(Cl)c(Cl)c1)Nc1cccc2[nH]ncc12
c: O=C(NCc1ccc(Cl)c(Cl)c1)Nc1cccc2[nH]ccc12
d: Cn1ncc2c(NC(=O)NCc3ccc(Cl)c(Cl)c3)cccc21
Query: Endpoint returns the given compounds ordered by ascending EC50. Hello, could you send the labels back in the order asked? Thank you.
Response: b, d, c, a
(b: 21 nM, d: 120 nM, c: 220 nM, a: 2710 nM)

* * *

Target: Transient receptor potential cation channel subfamily V member 1 (Homo sapiens)
Test: Ca2+ Influx Functional Assay for the Determination of in Vitro Activity.
Settings: pH 7.4; 22 °C
pEC50: −log10 of the molar value.
MEASUREMENT_TYPE: pEC50

P: O=C(NCc1ccc(Br)cc1)Nc1ccc2cc[nH]c2c1
Q: Cn1cc2c(NC(=O)NCc3ccc(Br)cc3)cccc2n1
R: Cn1ncc2c(NC(=O)NCc3ccc(F)cc3)cccc21
Query: Order by pEC50, ascending. List the labels, following the order given in the request.
Response: P, Q, R
(P: 5.52, Q: 5.86, R: 6.14)

* * *

Biological target: Transient receptor potential cation channel subfamily V member 1 (Homo sapiens)
Assay: Ca2+ Influx Functional Assay for the Determination of in Vitro Activity.
Conditions: pH 7.4; 22 °C
pEC50: −log10 of the molar value.
MEASUREMENT_TYPE: pEC50

A selection of reference data follows.
INSERT INTO measurements (smiles_repr, measurement) VALUES
  ('Cn1ncc2c(NC(=O)NCc3ccc(Cl)cc3)cccc21', 7.22),
  ('O=C(Cc1cccc2[nH]ccc12)NCc1ccc(C(F)(F)F)cc1', 6.28),
  ('Cn1ncc2c(NC(=O)NCc3ccc(Br)cc3)cccc21', 7.12);

a: O=C(NCc1ccc(Br)cc1)Nc1cccc2nc[nH]c12
b: O=C(NCc1ccc(C(F)(F)F)cc1)Nc1cccc2[nH]ncc12
Query: Lab log: flag the item ( a or b ) with the smaller pEC50 figure. Mark your selection by writing its label.
Response: a
(a: 5.61, b: 8.05)

a: O=C(NCc1ccc(OC(F)(F)F)cc1)Nc1cccc2[nH]ncc12
b: O=C(NCc1ccc(C(F)(F)F)cc1)Nc1cccc2[nH]ccc12
Query: Compare reported pEC50 values for a and b . Which is lower? Lab log: write the label of the selected item as the result.
Response: b
(b: 7.22, a: 7.96)

I: O=C(Nc1cccc2[nH]ccc12)OCc1ccc(C(F)(F)F)cc1
II: O=C(NCc1ccc(Cl)cc1)Nc1cccc2[nH]ccc12
III: O=C(NCc1cccc(C(F)(F)F)c1)Nc1cccc2[nH]ncc12
Query: Returns the items ordered by pEC50, from maximum to minimum. Form entry: ranked labels (order as requested).
Response: III, II, I
(III: 7.36, II: 6.82, I: 6.03)
